measured on: T1, human TSLP recombinant protein (human, UniProt Q969D9 29-159, biotinylated in the blocking and cell-binding assays (sites not given))
T1 construct: also called biotinylated human TSLP protein
experimental protocol: competition ELISA, biotin-human TSLP to coated human TSLPR-Fc
Field: pIC50. Provide a value for each of the binders that follow.
One number for each entry, as −log10 of the molar value.

| binder | recorded measurement |
| --- | --- |
| Murine anti-39G5 (mAb39G5) (antibody, V domains shown, also called murine antibody 39G5) VH: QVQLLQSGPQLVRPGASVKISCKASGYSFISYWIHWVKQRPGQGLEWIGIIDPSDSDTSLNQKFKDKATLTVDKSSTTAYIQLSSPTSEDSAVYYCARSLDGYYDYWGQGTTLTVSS VL: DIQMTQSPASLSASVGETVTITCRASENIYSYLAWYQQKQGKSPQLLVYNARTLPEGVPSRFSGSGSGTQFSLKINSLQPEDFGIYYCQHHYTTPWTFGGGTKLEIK | 8.71 |
| Ab5 (antibody, V domains shown, Humanized; also called h39G5VHv5/h39G5VKv1) VH: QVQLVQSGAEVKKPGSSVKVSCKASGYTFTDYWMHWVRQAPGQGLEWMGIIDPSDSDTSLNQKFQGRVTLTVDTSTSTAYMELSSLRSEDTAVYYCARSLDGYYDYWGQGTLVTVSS VL: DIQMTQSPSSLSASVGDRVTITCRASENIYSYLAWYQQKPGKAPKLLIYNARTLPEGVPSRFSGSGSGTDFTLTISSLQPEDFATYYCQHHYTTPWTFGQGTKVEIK | 8.77 |
| Ab21 (antibody, V domains shown, Humanized; also called h71G4VHv3/h71G4VKv1) VH: QVQLVQSGAEVKKPGSSVKVSCKASGYTFTDYWMHWVRQAPGQGLEWMGTIDNSDSDTTYNQKFQGRVTMTRDTSTSTVYMELSSLRSEDTAVYYCARSVDGYLDYWGQGTLVTVSS VL: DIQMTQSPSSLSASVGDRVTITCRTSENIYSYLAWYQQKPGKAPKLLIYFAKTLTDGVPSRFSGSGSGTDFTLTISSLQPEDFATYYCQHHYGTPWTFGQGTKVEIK | 8.66 |
| Ab2 (antibody, V domains shown, Humanized; also called h39G5VHv2/h39G5VKv1) VH: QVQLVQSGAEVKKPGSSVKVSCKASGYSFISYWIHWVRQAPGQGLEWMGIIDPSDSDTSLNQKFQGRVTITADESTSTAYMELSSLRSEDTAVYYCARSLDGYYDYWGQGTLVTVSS VL: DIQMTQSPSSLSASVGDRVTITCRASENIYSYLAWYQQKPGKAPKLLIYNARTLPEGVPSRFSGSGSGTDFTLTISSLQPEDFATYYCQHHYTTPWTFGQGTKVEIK | 8.83 |
| Murine anti-71G4 (mAb71G4) (antibody, V domains shown, also called murine antibody 71G4) VH: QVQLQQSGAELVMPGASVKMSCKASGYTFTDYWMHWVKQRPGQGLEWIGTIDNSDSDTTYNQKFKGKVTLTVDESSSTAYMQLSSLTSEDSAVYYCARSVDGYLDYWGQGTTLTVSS VL: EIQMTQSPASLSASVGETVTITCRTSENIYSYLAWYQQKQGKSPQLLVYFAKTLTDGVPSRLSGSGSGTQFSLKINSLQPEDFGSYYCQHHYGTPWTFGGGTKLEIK | 8.70 |
| Ab8 (antibody, V domains shown, Humanized; also called h39G5VHv8/h39G5VKv1) VH: EVQLVQSGAEVKKPGESLKISCKASGYTFTDYWMHWVRQMPGKGLEWMGIIDPSDSDTSLNQSFQGHVTLSVDKSSTTAYLQWSSLKASDTAMYYCARSLDGYYDYWGQGTLVTVSS VL: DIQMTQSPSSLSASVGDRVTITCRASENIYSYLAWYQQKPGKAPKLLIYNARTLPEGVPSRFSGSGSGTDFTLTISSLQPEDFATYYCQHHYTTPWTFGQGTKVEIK | 8.69 |
| Ab1 (antibody, V domains shown, Humanized; also called h39G5VHv1/h39G5VKv1) VH: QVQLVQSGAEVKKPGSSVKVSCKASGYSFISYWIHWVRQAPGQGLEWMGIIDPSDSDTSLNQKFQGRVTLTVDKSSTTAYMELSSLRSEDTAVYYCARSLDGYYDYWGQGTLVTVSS VL: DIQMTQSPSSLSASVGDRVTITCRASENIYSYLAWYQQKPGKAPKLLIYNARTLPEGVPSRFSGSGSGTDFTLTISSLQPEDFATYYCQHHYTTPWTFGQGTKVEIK | 8.77 |
| Ab20 (antibody, V domains shown, Humanized; also called h71G4VHv2/h71G4VKv1) VH: QVQLVQSGAEVKKPGSSVKVSCKASGYTFTDYWMHWVRQAPGQGLEWMGTIDNSDSDTTYNQKFQGRVTLTVDTSTSTAYMELSSLRSEDTAVYYCARSVDGYLDYWGQGTLVTVSS VL: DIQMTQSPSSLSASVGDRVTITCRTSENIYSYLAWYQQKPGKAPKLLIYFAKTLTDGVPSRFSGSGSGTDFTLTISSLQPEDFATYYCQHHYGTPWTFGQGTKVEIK | 8.70 |
| Ab4 (antibody, V domains shown, Humanized; also called h39G5VHv4/h39G5VKv1) VH: EVQLVQSGAEVKKPGESLRISCKASGYSFISYWIHWVRQMPGKGLEWMGIIDPSDSDTSLNQSFQGHVTISADKSISTAYLQWSSLKASDTAMYYCARSLDGYYDYWGQGTLVTVSS VL: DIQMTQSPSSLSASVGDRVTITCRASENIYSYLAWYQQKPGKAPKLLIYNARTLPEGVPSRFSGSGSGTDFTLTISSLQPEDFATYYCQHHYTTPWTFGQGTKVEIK | 8.77 |

Here is another binder to look at.
Exercise: # input binder: Ab24 (antibody, V domains shown, Humanized; also called h39G5VHv5/h71G4VKv1; h39G5VHv5/h71G4VKv1 hIgG1) VH: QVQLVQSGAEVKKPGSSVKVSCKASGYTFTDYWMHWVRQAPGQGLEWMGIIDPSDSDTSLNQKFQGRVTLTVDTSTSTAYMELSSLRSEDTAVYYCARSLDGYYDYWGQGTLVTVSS VL: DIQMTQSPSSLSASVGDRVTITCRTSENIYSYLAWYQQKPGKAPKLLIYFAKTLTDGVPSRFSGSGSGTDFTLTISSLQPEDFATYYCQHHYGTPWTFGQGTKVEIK ; wanted: its pIC50
Solution: 8.70
